Exercise: state measured SH2 binding enrichment for each of the sequences provided.
Target: SHP2-C SH2
Method: SH2 binding enrichment of the phosphorylated peptide, bacterial display (enrichment ratio); higher = better substrate or ligand; peptides without Tyr show the background
// no unit string in output, number only

Form field - read-out: SH2 binding enrichment; system: SHP2-C SH2; submitted item: ENQEIYRKAFD [KPNA1_Y493_Q494R]
0.719

What is its SH2 binding enrichment for SHP2-C SH2? Entry: HVIKLYGACSQ [RET_Y791]
0.763

Lookup: SH2 binding enrichment / SHP2-C SH2 / TVHPGYGFLSE [PCCA_Y143_A138T]
0.962

SHP2-C SH2 / SH2 binding enrichment / CTTVHYNFMCN [TP53_Y234_I232V_YF] : value?
2.38

Form entry - test system: SHP2-C SH2; read-out: SH2 binding enrichment; sequence: EEGRVYVYHLS [ITGAE_Y549_R552H]
0.897

Hello, I am looking for reported SH2 binding enrichment with SHP2-C SH2 for HLQQSYLPRGT [TEX45_Y396] . Could you help?
0.458

Checklist item: SH2 binding enrichment tested on SHP2-C SH2, entry IFRASYFRRGD [LTK_Y676_YF] , value?
0.509

Test system SHP2-C SH2; read-out SH2 binding enrichment; what value for PEADKYRLTYA [FGG_Y300] ?
0.736

Give SH2 binding enrichment (SHP2-C SH2) of the following sequence: RSSNTYTLTDV [ALCAM_Y298]
0.689

# query: SH2 binding enrichment | item LKDEDYLKDIV [HAUS3_Y582] | system: SHP2-C SH2
0.983

Reported SH2 binding enrichment for SHP2-C SH2, given GVSYIYTIDGS [DCX_Y105_R102S] ?
16.3

Report SH2 binding enrichment for EWRSPYGLTPR [GRIN3B_Y601] tested on SHP2-C SH2.
0.766

# get_value(readout= SH2 binding enrichment, system= SHP2-C SH2) for RELSWYRGQRP [HESX1_Y106_R109Q]
0.785

// map ETELPYQELQG [TYROBP_Y91_S89L] to recorded SH2 binding enrichment (system: SHP2-C SH2)
0.504

Provide value of SH2 binding enrichment for this record tested with SHP2-C SH2: CSGNCYLDIRP [FBN1_Y1535_R1530C]
1.07

What measured SH2 binding enrichment is associated with DPFHVYIKNRV [KCNE3_Y95_YF] on SHP2-C SH2?
0.936

Requested read-out SH2 binding enrichment, target or system SHP2-C SH2, entry KAIMIYVSSFF [ACTN4_Y260_T259I_YF]
0.967

API: value(readout=SH2 binding enrichment, system=SHP2-C SH2) for record ERSMSYSDESR [SMG1_Y143];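 also: peptide library displayed on the E. coli surface as eCPX fusions, selected cells deep-sequenced, score is each peptide's frequency after selection divided by its frequency in the input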
0.714
